Cited source for all entries: ChEMBL document CHEMBL3714716

- Subject Of Test: Relaxin receptor 2 (Homo sapiens, UniProt Q8WXD0)
- Sequence (Q8WXD0 whole entry): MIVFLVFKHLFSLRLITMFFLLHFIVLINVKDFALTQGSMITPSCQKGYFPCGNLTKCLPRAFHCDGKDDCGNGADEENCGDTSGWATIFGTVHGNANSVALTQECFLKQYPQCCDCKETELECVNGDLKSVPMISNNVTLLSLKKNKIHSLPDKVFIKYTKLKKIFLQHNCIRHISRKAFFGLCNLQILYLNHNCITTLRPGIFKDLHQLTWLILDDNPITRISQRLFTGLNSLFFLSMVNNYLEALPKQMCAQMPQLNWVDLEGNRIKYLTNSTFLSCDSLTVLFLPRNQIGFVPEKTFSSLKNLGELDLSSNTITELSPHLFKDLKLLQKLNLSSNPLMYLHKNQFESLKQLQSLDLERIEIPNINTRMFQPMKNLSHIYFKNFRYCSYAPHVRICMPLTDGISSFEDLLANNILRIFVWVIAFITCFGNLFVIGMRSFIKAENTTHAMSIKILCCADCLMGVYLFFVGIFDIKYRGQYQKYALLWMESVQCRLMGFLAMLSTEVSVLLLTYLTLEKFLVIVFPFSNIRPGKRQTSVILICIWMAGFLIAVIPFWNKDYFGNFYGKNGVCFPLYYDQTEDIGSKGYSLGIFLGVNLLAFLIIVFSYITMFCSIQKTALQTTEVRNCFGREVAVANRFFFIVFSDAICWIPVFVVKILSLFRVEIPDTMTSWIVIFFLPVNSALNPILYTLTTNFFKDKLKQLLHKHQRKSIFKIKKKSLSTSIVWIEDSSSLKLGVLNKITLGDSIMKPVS
- Test: Agonist activity at RXFP2 receptor (unknown origin) expressed in HEK293 cells assessed as stimulation of cAMP production incubated for 30 mins by HTRF assay
- Assay type: functional, cell-based
- Condition Info: hek293
Property Label: AC50

INSERT INTO measurements (mol, result) VALUES
  ('O=C(Nc1ccccc1C(=O)Nc1cccc(C(F)(F)F)c1)c1ccncc1', 'Not Active'),
  ('O=C(Nc1ccccc1C(=O)Nc1cccc(C(F)(F)F)c1)c1cccnc1', 'Not Active'),
  ('O=C(Nc1cccc(C(F)(F)F)c1)c1ccccc1NC(=O)C1CCCCC1', 'Not Active'),
  ('O=C(Nc1cccc(C(F)(F)F)c1)c1ccccc1NC(=O)c1cccc2nc[nH]c12', 'Not Active'),
  ('O=C(Nc1ccccc1C(=O)Nc1cccc(C(F)(F)F)c1)c1cccs1', 'Not Active');
